Test system: Amycolatopsis sp. ATCC 39116
Assay: Utilization of aromatics as sole source of carbon (growth, OD600)
Format: cell-based
Details: 2 mM substrate as sole source of carbon in mineral salt medium; OD600 after 40 hours
parameter_measured: Growth

compound	test_value
Oc1ccccc1O	++ (1 > OD > 0.5)
Oc1ccccc1	++ (1 > OD > 0.5)
COc1ccccc1O	++ (1 > OD > 0.5)
O=C(O)c1ccccc1	+++ (OD > 1)
O=C(O)/C=C\C=C/C(=O)O [Cis,cis-muconic acid, (2Z,4Z)-2,4-Hexadienedioate]	+++ (OD > 1)
O=C(O)/C=C/c1ccc(O)cc1	+++ (OD > 1)
